The reported measurements were obtained from ChEMBL document CHEMBL1157741.

# EXPERIMENT NOTES: Selectivity index, ratio of IC50 for african green monkey Vero cells to MIC for Mycobacterium tuberculosis H37Rv by low oxygen recovery assay
# Assay type: functional
RESULT TYPE: Selectivity Index

Recorded results for 6 compounds are shown here.
compound="OC(c1cc(C(F)(F)F)nc2c(C(F)(F)F)cccc12)C1CCCCN1 (stereo unspecified)" result_type="Selectivity Index" observed=1.6
compound=CCOC(=O)c1cc(COc2cccc3cccnc23)on1 result_type="Selectivity Index" observed=>1
compound=CCOC(=O)c1cc(COc2ccc3ccc(C(F)(F)F)nc3c2)on1 result_type="Selectivity Index" observed=>5.9
compound=CCOC(=O)c1cc(COc2cccc3ncccc23)on1 result_type="Selectivity Index" observed=>4.1
compound=CCCCOC(=O)c1cc(COc2cc(C(F)(F)F)nc3c(C(F)(F)F)cccc23)on1 result_type="Selectivity Index" observed=>10.6
compound=CCOC(=O)c1cc(COc2ccc([N+](=O)[O-])c(C(F)(F)F)c2)on1 result_type="Selectivity Index" observed=>2.1

Ask | Look up Selectivity Index for this compound: `CCOC(=O)c1cc(COc2ccc3cccnc3c2)on1`
Reply | >2.7

Ask | Look up Selectivity Index for this compound: `CCCCCCOC(=O)c1cc(COc2cc(C(F)(F)F)nc3c(C(F)(F)F)cccc23)on1`
Reply | >4.8

Ask | Look up Selectivity Index for this compound: `CCOC(=O)c1cc(COc2ccc3ccccc3n2)on1`
Reply | >2

====

# Tested on: Mycobacterium tuberculosis
# EXPERIMENT NOTES: Antitubercular activity against Mycobacterium tuberculosis H37Rv after 28 hrs by low oxygen recovery assay
# Assay type: functional
RESULT TYPE: MIC

Recorded results for 3 compounds are shown here.
smiles_code=O=C(c1cc(COc2cc(C(F)(F)F)nc3c(C(F)(F)F)cccc23)on1)N1CCCCO1 result_type=MIC observed="> 128 µM"
smiles_code=CCOC(=O)c1cc(COc2ccc3ccccc3n2)on1 result_type=MIC observed="64 µM"
smiles_code=OCc1cc(COc2cc(C(F)(F)F)nc3c(C(F)(F)F)cccc23)on1 result_type=MIC observed="> 128 µM"

Ask | Look up MIC for this compound: `CO[C@H]1/C=C/O[C@@]2(C)Oc3c(C)c(O)c4c(O)c(c(/C=N/N5CCN(C)CC5)c(O)c4c3C2=O)NC(=O)/C(C)=C\C=C\[C@H](C)[C@H](O)[C@@H](C)[C@@H](O)[C@@H](C)[C@H](OC(C)=O)[C@@H]1C`
Reply | 2 µM

====

# Test system: Mycobacterium tuberculosis
# EXPERIMENT NOTES: Antitubercular activity against Mycobacterium tuberculosis H37Rv after 28 hrs by low oxygen recovery assay
# Type: functional
MIC strictly less than 30 µM = true (1). Otherwise false (0).

Check out these entries, answers already filled in.
compound=NC(=O)c1cc(COc2cc(C(F)(F)F)nc3c(C(F)(F)F)cccc23)on1 class="false (0)"
compound=CCOC(=O)c1cc(COc2ccc3ncccc3c2)on1 class="true (1)"
compound=CCOC(=O)c1cc(COc2cccc3cccnc23)on1 class="false (0)"
compound=CCOC(=O)c1cc(COc2ccnc3ccccc23)on1 class="true (1)"
compound=CCOC(=O)c1cc(COc2cc(C(F)(F)F)nc3c(C(F)(F)F)cccc23)on1 class="true (1)"
compound=CCCCOC(=O)c1cc(COc2cc(C(F)(F)F)nc3c(C(F)(F)F)cccc23)on1 class="true (1)"

Ask | API: query returns whether the compound falls strictly under 30 µM in MIC. Query: `CCc1noc(-c2cc(COc3cc(C(F)(F)F)nc4c(C(F)(F)F)cccc34)on2)n1`
Reply | false (0)

====

# System: Mycobacterium tuberculosis
# EXPERIMENT NOTES: Antitubercular activity against Mycobacterium tuberculosis H37Rv after 72 hrs by microplate alamar blue assay
# Type: functional
Each entry falls in a class defined on MIC; the bands are b0 (below 4 µM), b1 (4 µM to below 20 µM), b2 (20 µM or more)

Check out these entries, answers already filled in.
compound=O=C(OCc1ccccc1)c1cc(COc2cc(C(F)(F)F)nc3c(C(F)(F)F)cccc23)on1 class=b2
compound=CCOC(=O)c1cc(COc2ccc3cc[nH]c3c2)on1 class=b1
compound=CCCOC(=O)c1cc(COc2cc(C(F)(F)F)nc3c(C(F)(F)F)cccc23)on1 class=b0
compound=CCOC(=O)c1cc(COc2ccc([N+](=O)[O-])c(C(F)(F)F)c2)on1 class=b0
compound=CCOC(=O)c1cc(COc2ccc3cccnc3c2)on1 class=b1
compound=CCCCOC(=O)c1cc(COc2cc(C(F)(F)F)nc3c(C(F)(F)F)cccc23)on1 class=b0

Ask | For OC(c1cc(C(F)(F)F)nc2c(C(F)(F)F)cccc12)C1CCCCN1 (stereo not given) [MEFLOQUINE] , which MIC bin applies?
Reply | b1

Ask | For `CCOC(=O)c1cc(COc2cc(C(F)(F)F)c3nc(C(F)(F)F)cc(OCc4cc(C(=O)OCC)no4)c3c2)on1` , which MIC bin applies?
Reply | b1

Ask | For CO[C@H]1/C=C/O[C@@]2(C)Oc3c(C)c(O)c4c(O)c(c(/C=N/N5CCN(C)CC5)c(O)c4c3C2=O)NC(=O)/C(C)=C\C=C\[C@H](C)[C@H](O)[C@@H](C)[C@@H](O)[C@@H](C)[C@H](OC(C)=O)[C@@H]1C [RIFAMPIN] , which MIC bin applies?
Reply | b0

Ask | For `OCc1cc(COc2cc(C(F)(F)F)nc3c(C(F)(F)F)cccc23)on1` , which MIC bin applies?
Reply | b2

====

# EXPERIMENT NOTES: Toxicity in po dosed BALB/c mouse assessed as maximum tolerated dose treated for 5 days
# Assay type: organism-based
# CONDITION: in vivo
RESULT TYPE: MTD at 120 h (mg/kg)
Report as a plain number; the unit mg/kg is understood.

Ask | Look up MTD at 120 h for this compound: `O=C(O)c1cc(COc2cc(C(F)(F)F)nc3c(C(F)(F)F)cccc23)on1`
Reply | 400

====

# EXPERIMENT NOTES: Selectivity index, ratio of IC50 for african green monkey Vero cells to MIC for Mycobacterium tuberculosis H37Rv by low oxygen recovery assay
# Type: functional
Reported Selectivity Index is given for each of the following compounds.

Ask | Look up Selectivity Index for this compound: `CCOC(=O)c1cc(COc2ccc3cc[nH]c3c2)on1`
Reply | >2.9

====

# Test system: Mycobacterium tuberculosis
# EXPERIMENT NOTES: Antitubercular activity against Mycobacterium tuberculosis H37Rv after 28 hrs by low oxygen recovery assay
# Type: functional
RESULT TYPE: MIC

Recorded results for 5 compounds are shown here.
compound=CCOC(=O)c1cc(COc2ccc3cccnc3c2)on1 result_type=MIC observed="40.3 µM"
compound="OC(c1cc(C(F)(F)F)nc2c(C(F)(F)F)cccc12)C1CCCCN1 (centres undefined)" result_type=MIC observed="7 µM"
compound=CC(=O)OCc1cc(COc2cc(C(F)(F)F)nc3c(C(F)(F)F)cccc23)on1 result_type=MIC observed="> 128 µM"
compound=CCOC(=O)c1cc(COc2ccc([N+](=O)[O-])c(C(F)(F)F)c2)on1 result_type=MIC observed="62.2 µM"
compound=CCOC(=O)c1cc(COc2ccc3ccc(C(F)(F)F)nc3c2)on1 result_type=MIC observed="21.6 µM"

Ask | What MIC appears in the records for this compound with Mycobacterium tuberculosis? `O=C(OCc1ccccc1)c1cc(COc2cc(C(F)(F)F)nc3c(C(F)(F)F)cccc23)on1`
Reply | 50.7 µM

Ask | What MIC appears in the records for this compound with Mycobacterium tuberculosis? `NNC(=O)c1cc(COc2cc(C(F)(F)F)nc3c(C(F)(F)F)cccc23)on1`
Reply | > 128 µM

Ask | What MIC appears in the records for this compound with Mycobacterium tuberculosis? `CCOC(=O)c1cc(COc2cccc3ncccc23)on1`
Reply | 31.1 µM

Ask | What MIC appears in the records for this compound with Mycobacterium tuberculosis? `CCOC(=O)c1cc(COc2ccc3cc[nH]c3c2)on1`
Reply | 42.9 µM

Ask | What MIC appears in the records for this compound with Mycobacterium tuberculosis? `CCCCCCOC(=O)c1cc(COc2cc(C(F)(F)F)nc3c(C(F)(F)F)cccc23)on1`
Reply | 26.7 µM

Ask | What MIC appears in the records for this compound with Mycobacterium tuberculosis? `CCCOC(=O)c1cc(COc2cc(C(F)(F)F)nc3c(C(F)(F)F)cccc23)on1`
Reply | 26.1 µM

Ask | What MIC appears in the records for this compound with Mycobacterium tuberculosis? `O=C(OCCC(F)(F)F)c1cc(COc2cc(C(F)(F)F)nc3c(C(F)(F)F)cccc23)on1`
Reply | 29.9 µM

Ask | What MIC appears in the records for this compound with Mycobacterium tuberculosis? `CCN(CC)C(=O)c1cc(COc2cc(C(F)(F)F)nc3c(C(F)(F)F)cccc23)on1`
Reply | > 128 µM

Ask | What MIC appears in the records for this compound with Mycobacterium tuberculosis? `CCOC(=O)c1cc(COc2cc(C(F)(F)F)c3nc(C(F)(F)F)cc(OCc4cc(C(=O)OCC)no4)c3c2)on1`
Reply | 15.6 µM
